System Tested: AhR (Homo sapiens, UniProt P35869)
Construct: One of the resultant clones was named HEK-XRE 11.1, and used in the reporter gene assays; endogenous in cells; host or cells: HEK-XRE 11.1 (HEK cells stably carrying the AhR-responsive luciferase reporter X4-4.27 and phRL-CMV)
Sequence (P35869 11-848): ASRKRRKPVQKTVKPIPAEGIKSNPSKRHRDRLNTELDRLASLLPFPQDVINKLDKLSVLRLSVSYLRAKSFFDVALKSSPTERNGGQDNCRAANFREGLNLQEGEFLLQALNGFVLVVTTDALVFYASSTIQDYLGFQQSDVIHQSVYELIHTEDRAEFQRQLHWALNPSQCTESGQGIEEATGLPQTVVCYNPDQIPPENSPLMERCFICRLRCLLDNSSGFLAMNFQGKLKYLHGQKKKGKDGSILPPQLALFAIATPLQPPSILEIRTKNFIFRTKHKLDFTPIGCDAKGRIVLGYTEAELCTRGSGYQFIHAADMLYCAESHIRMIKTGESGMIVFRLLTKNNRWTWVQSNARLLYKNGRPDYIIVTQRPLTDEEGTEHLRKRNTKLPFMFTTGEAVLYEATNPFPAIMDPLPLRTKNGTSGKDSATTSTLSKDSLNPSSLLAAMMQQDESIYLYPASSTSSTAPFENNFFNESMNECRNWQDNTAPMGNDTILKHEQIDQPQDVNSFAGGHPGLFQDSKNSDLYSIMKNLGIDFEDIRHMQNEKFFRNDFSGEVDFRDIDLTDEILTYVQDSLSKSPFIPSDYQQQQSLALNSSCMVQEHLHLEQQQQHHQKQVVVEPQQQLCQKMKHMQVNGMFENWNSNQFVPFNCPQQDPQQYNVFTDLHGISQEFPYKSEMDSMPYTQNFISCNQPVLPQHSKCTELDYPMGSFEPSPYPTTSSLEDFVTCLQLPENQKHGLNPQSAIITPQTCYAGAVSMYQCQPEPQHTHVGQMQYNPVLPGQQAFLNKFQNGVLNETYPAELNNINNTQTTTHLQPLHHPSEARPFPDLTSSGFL
Assay Info: Inhibition of AhR-mediated gene transcription (HEK-XRE 11.1 luciferase reporter, MeBIO induction)
Format: cell-based
Condition Notes: HEK-XRE 11.1 cells, MeBIO 0.1 nM, luminescence after 24 hours; Table 1
pIC50: −log10 of the molar value.
Measured Property: pIC50

Reference set (8 entries):
In [3]: df
Out[3]:
                  compound_structure_string  readout_value
0  Nc1c(C(=O)Nc2ccncc2)sc2ccc(C(F)(F)F)nc12   6.30 to 7.30
1        Cc1ccc(NC(=O)c2sc3ncc(C)cc3c2N)cc1         > 7.30
2      Cc1cnc2sc(C(=O)Nc3ccc(F)cc3)c(N)c2c1         > 7.30
3  Cc1cccc(NC(=O)c2sc3ncc(C(F)(F)F)cc3c2N)c1         > 7.30
4  Cc1cnc2sc(C(=O)Nc3ccc(C(F)(F)F)cc3)c(N)c2c1         > 7.30
5  Nc1c(C(=O)Nc2ccc(Cl)cc2)sc2ccc(C(F)(F)F)cc12         > 7.30
6     Nc1c(C(=O)Nc2ccncc2)sc2nc3c(cc12)CCC3   6.30 to 7.30
7  Nc1c(C(=O)Nc2ccncn2)sc2ncc(C(F)(F)F)cc12   6.30 to 7.30

I need pIC50 for every entry listed below, if you could help.
1. COc1cccc(NC(=O)c2sc3ncc(C(F)(F)F)cc3c2N)c1
2. COc1ccc(NC(=O)c2sc3nc4c(cc3c2N)CCCC4)cc1
3. Nc1c(C(=O)Nc2ncccn2)sc2ncc(C(F)(F)F)cc12
4. Nc1c(C(=O)Nc2ccc(Br)cc2)sc2cnc(C(F)(F)F)cc12
5. CSc1ccc(NC(=O)c2sc3ccc(C(F)(F)F)cc3c2N)cc1
6. Nc1c(C(=O)Nc2ccncc2)sc2ncc(Cl)cc12
7. CC(C)c1cnc2sc(C(=O)Nc3ccccc3)c(N)c2c1

6.30 to 7.30
6.30 to 7.30
> 7.30
6.30 to 7.30
6.30 to 7.30
> 7.30
> 7.30
